Tested on: strychnine-induced seizures
Assay: Strychnine-induced seizure model
Assay type: in vivo, mice
Conditions: dose not given
quantity.name: survival rate of strychnine-poisoned animals

| compound | val |
| --- | --- |
| COc1cc2c(cc1OC)C(c1ccccc1OC)NCC2 (stereo not drawn) [Compound 6] | no more than 40% |
| COc1cc(Br)c(C2NCCc3cc(OC)c(OC)cc32)cc1OC (stereo not drawn) [Compound 25] | 90% |
| COc1cc2c(cc1OC)C(c1ccccc1Br)NCC2 (stereo not drawn) [Compound 13] | no more than 40% |
| COc1cc2c(cc1OC)C(c1ccc(Br)cc1)NCC2 (stereo not drawn) [Compound 15] | no more than 40% |
| COc1ccc(C2NCCc3cc(OC)c(OC)cc32)cc1O (stereo not drawn) [Compound 20] | ~90% |
| COc1ccc(C2NCCc3cc(OC)c(OC)cc32)cc1OC (stereo not drawn) [Compound 22] | no more than 40% |

Hello, the source for this data is paper PMC12472494, in case you need it.
